Target: A₂ receptor (Rattus norvegicus, UniProt P30543)
Construct: from tissue; host or cells: rat corpus striatum membrane preparation
Sequence (P30543 whole entry): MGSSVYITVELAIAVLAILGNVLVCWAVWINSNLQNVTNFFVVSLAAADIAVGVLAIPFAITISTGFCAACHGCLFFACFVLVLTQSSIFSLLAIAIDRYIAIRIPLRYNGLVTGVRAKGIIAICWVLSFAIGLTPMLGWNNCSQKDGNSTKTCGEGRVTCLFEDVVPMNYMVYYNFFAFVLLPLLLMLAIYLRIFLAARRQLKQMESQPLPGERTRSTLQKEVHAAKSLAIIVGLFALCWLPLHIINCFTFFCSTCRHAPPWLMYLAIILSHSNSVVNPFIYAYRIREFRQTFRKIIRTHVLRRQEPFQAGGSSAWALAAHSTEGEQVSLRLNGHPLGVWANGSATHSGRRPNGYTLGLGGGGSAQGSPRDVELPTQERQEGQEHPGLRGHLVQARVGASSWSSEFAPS
Assay: Adenosine A₂ receptor binding test (³H-CGS 21680 binding)
Conditions: 10^-7M; [^3H]CGS 21680 was used, rat corpus striatum; read-out: A2 Receptor Inhibition (%)
Label scheme for inhibition at 0.1 µM: bottom bin = under 50%, middle bin = from 50% up to 70%, top bin = 70% and over

{"columns": ["GIVEN_SMILES", "CATEGORY_LABEL"],
 "data": [
  ["CCn1c(=O)c2[nH]c(/C=C/c3ccc(OC)c(C)c3)nc2n(CC)c1=O", "middle bin"],
  ["CCn1c(=O)c2[nH]c(/C=C/c3ccc(OCOC)cc3)nc2n(CC)c1=O", "top bin"],
  ["CCn1c(=O)c2c(nc(/C=C/c3ccc(C)cc3)n2C)n(CC)c1=O", "middle bin"],
  ["CCn1c(=O)c2c(nc(/C=C/c3ccc(OCCCCN=[N+]=[N-])cc3)n2C)n(CC)c1=O", "bottom bin"],
  ["CCn1c(=O)c2c(nc(/C=C/c3ccc(OC)c(C)c3)n2C)n(CC)c1=O", "top bin"],
  ["CCn1c(=O)c2c(nc(/C=C/c3ccc(OCc4ccccc4)cc3)n2C)n(CC)c1=O", "bottom bin"],
  ["CCn1c(=O)c2[nH]c(/C=C/c3cccc(C(F)(F)F)c3)nc2n(CC)c1=O", "middle bin"],
  ["CCn1c(=O)c2c(nc(/C=C/c3ccc(F)c(Cl)c3)n2C)n(CC)c1=O", "top bin"],
  ["CCCCOc1ccc(/C=C/c2nc3c(c(=O)n(CC)c(=O)n3CC)n2C)cc1", "bottom bin"],
  ["CCn1c(=O)c2[nH]c(/C=C/c3cccc(OC(F)(F)F)c3)nc2n(CC)c1=O", "middle bin"],
  ["CCCCOc1ccc(/C=C/c2nc3c([nH]2)c(=O)n(CC)c(=O)n3CC)cc1", "bottom bin"],
  ["CCn1c(=O)c2[nH]c(/C=C/c3cc(F)cc(F)c3)nc2n(CC)c1=O", "middle bin"],
  ["CCn1c(=O)c2c(nc(/C=C/c3cccc([N+](=O)[O-])c3)n2C)n(CC)c1=O", "top bin"],
  ["CCn1c(=O)c2c(nc(/C=C/c3ccc(-c4ccccc4)cc3)n2C)n(CC)c1=O", "bottom bin"],
  ["CCn1c(=O)c2[nH]c(/C=C/c3cccc(Br)c3)nc2n(CC)c1=O", "bottom bin"],
  ["CCn1c(=O)c2[nH]c(/C=C/c3ccccc3F)nc2n(CC)c1=O", "middle bin"]
]}
